# Lookup of reported normalized growth keyed by entry
Assay: chemical genetic growth profiling, strain panel (AID 1159580);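 note: tested at 20 µM; growth read once vehicle control cultures reached saturation at 30 °C; 1 = growth at the plate median or of vehicle wells; lower values mean less growth of the strain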
Conditions: S. cerevisiae deletion strains, growth OD, locus YDR388W, stronger effect = lower value
Screen size: about 5,500 compounds; about 2,000 (36%) were called active. Inconclusive results (about 18%) are left out. Some of the results follow.
Respond with the number and no other words.

Sample answers from the record:
C=C1C(C)C2C(Cc3ccccc3)NC(=O)C23OC(=O)/C=C/C(=O)CCCC(C)C/C=C/C3C1O (configuration not stated) | 0.908
C=C1C(C)C2C(Cc3ccccc3)NC(=O)C23OC(=O)/C=C/C(O)CCCC(C)C/C=C/C3C1O (configuration not stated) | 1
CCCCN1CCCCC1C(=O)Nc1c(C)cccc1C (configuration not stated) | 0.986
COc1c2ccoc2c(OC)c2oc(=O)ccc12 | 0.966
COc1cc(-c2coc3cc(OCc4ccccc4)c(OC)c(O)c3c2=O)cc(OCc2ccccc2)c1OC | 0.981

Record summary for CC(=O)N[C@@H](CS)C(=O)O : reported normalized growth = 1.02

Recorded normalized growth (molecule Nc1ccn(C2O[C@H](CO)[C@@H](O)[C@@H]2O)c(=O)n1 (some centres not stated) ): 0.994
